IC50 values for the compounds below.
# tested-system: HDAC6 human recombinant (Homo sapiens (Human))
# Sequence (Q9UBN7 whole entry): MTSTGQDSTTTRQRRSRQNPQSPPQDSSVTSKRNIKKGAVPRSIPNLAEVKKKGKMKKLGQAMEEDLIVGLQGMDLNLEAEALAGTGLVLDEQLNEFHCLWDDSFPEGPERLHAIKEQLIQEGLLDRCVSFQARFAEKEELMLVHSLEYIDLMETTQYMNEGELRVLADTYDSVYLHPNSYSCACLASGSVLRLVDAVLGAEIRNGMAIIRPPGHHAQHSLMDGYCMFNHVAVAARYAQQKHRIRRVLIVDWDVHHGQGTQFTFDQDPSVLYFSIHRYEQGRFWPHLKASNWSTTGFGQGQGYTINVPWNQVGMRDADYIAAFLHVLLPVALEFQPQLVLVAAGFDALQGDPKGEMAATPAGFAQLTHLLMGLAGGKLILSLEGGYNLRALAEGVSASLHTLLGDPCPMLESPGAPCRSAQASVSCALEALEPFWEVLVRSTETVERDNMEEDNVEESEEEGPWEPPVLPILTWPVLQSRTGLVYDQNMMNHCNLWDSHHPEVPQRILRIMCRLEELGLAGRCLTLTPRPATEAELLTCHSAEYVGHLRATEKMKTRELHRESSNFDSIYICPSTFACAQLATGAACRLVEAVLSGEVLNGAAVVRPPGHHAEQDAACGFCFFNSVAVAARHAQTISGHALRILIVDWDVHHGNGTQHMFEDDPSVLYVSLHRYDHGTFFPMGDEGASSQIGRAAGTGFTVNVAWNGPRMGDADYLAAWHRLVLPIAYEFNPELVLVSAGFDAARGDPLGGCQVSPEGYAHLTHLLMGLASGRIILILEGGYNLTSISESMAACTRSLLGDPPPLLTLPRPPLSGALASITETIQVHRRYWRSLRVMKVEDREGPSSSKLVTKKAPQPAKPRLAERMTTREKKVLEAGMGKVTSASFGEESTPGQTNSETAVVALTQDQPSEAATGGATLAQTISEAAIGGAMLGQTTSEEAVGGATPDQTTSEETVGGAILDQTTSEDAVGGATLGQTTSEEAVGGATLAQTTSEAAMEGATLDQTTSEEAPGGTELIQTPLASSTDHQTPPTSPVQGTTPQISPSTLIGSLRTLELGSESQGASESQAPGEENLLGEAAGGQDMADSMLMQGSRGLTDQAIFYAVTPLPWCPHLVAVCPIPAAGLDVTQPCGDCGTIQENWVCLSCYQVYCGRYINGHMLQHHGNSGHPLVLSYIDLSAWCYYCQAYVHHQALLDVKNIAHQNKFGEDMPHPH
# measurement-protocol: HDAC enzyme activity inhibition (in vitro), HDAC6 assay
# condition-description: samples at 0.1, 1, 10, 100 and 1000 nM; 37° C. 60 minutes; fluorescence Ex 390, Em 460
Express your answer in nM, writing the number without its unit.

# count of solved cases: 3
CCN1CC=C(c2ccc3c(c2)C(C)(C)C(=O)N(Cc2ncc(-c4nnc(C(F)F)o4)cn2)C3=O)CC1 : 185
CC1(C)C(=O)N(Cc2ccc(-c3nnc(C(F)F)o3)cn2)C(=O)c2cc(C3=CCS(=N)(=O)CC3)ccc21 (stereo not shown) : 32
CC1(C)C(=O)N(Cc2ccc(-c3nnc(C(F)F)o3)cn2)C(=O)c2c(-c3ccncc3)cccc21 : 79

Here is the next item to consider.
Using the record for Cn1c(=O)n(Cc2ccc(-c3nnc(C(F)F)o3)cn2)c(=O)c2cc(-c3ccco3)ccc21 , report its IC50.
23

###

# tested-system: HDAC6 human recombinant (Homo sapiens (Human))
# measurement-protocol: HDAC enzyme activity inhibition (in vitro), HDAC6 assay
# condition-description: samples at 0.1, 1, 10, 100 and 1000 nM; 37° C. 60 minutes; fluorescence Ex 390, Em 460
IC50 under 100 nM gets fulfilled, anything at or over 100 nM gets not fulfilled.

Cn1c(=O)n(Cc2ccc(-c3nnc(C(F)F)o3)cn2)c(=O)c2cc(-c3ccncc3)ccc21 : fulfilled
CCN1CCC(c2ccc3c(c2)C(C)(C)C(=O)N(Cc2ccc(-c4nnc(C(F)F)o4)cn2)C3=O)CC1 : fulfilled
CC1(C)C(=O)N(Cc2ncc(-c3nnc(C(F)F)o3)cn2)C(=O)c2ccccc21 : fulfilled
CC1(C)C(=O)N(Cc2ccc(-c3nnc(C(F)F)o3)cn2)C(=O)c2cc(N3CCOCC3)ccc21 : fulfilled

Threshold test, IC50 < 100 nM: CC1(C)C(=O)N(Cc2ccc(-c3nnc(C(F)F)o3)cn2)C(=O)c2cc(Br)ccc21
fulfilled

Threshold test, IC50 < 100 nM: CCCN1CCN(c2ccc3c(c2)C(C)(C)C(=O)N(Cc2ccc(-c4nnc(C(F)F)o4)cn2)C3=O)CC1
fulfilled

Threshold test, IC50 < 100 nM: CC(C)(C)OC(=O)N1CCN(c2ccc3c(c2)C(C)(C)C(=O)N(Cc2ccc(-c4nnc(C(F)F)o4)cn2)C3=O)CC12CC2
not fulfilled

Threshold test, IC50 < 100 nM: CC1(C)C(=O)N(Cc2ccc(-c3nnc(C(F)F)o3)cn2)C(=O)c2c(-c3ccoc3)cccc21
fulfilled

Threshold test, IC50 < 100 nM: CC1(C)C(=O)N(Cc2ccc(-c3nnc(C(F)F)o3)cn2)C(=O)c2cc(N3CCN(CC(F)(F)F)CC3)ccc21
fulfilled

Threshold test, IC50 < 100 nM: CCCN1CCC(c2ccc3c(c2)C(=O)N(Cc2ccc(-c4nnc(C(F)F)o4)cn2)C(=O)C3(C)C)CC1
fulfilled

Threshold test, IC50 < 100 nM: CC(C)CCN1CCN(c2ccc3c(c2)C(=O)N(Cc2ccc(-c4nnc(C(F)F)o4)cn2)C(=O)C3(C)C)CC1
fulfilled

Threshold test, IC50 < 100 nM: CC(C)(C)OC(=O)N1CCN(c2ccc3c(c2)C(=O)N(Cc2ccc(-c4nnc(C(F)F)o4)cn2)C(=O)C3(C)C)CC1
not fulfilled

Threshold test, IC50 < 100 nM: CC1(C)C(=O)N(Cc2ccc(-c3nnc(C(F)F)o3)cc2F)C(=O)c2ccccc21
not fulfilled

Threshold test, IC50 < 100 nM: CN1CCN(c2ccc3c(c2)C(C)(C)C(=O)N(Cc2ncc(-c4nnc(C(F)F)o4)cn2)C3=O)CC1
not fulfilled

Threshold test, IC50 < 100 nM: CC(C)CN1CCN(c2ccc3c(c2)C(C)(C)C(=O)N(Cc2ccc(-c4nnc(C(F)F)o4)cn2)C3=O)CC1
fulfilled

This collection of values is drawn from patent US12440484B2.
